Measured values drawn from patent US20190119282A1 for this set.

Listed below: pIC50 values for each entry.
Target: PAR2 (HT-29 cells, trypsin activation) (Homo sapiens, UniProt P55085)
Construct: host or cells: HT-29 cells
Sequence (P55085 26-397): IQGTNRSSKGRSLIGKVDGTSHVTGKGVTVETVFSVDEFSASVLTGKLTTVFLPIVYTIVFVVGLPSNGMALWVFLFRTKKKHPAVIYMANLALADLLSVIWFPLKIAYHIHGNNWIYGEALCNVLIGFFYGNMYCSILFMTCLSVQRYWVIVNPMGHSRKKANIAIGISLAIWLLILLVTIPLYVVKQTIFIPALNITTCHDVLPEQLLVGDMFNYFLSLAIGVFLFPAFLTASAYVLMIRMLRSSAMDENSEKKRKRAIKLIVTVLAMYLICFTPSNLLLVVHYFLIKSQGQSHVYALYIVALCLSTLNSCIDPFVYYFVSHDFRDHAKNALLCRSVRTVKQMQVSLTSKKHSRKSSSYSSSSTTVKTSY
Assay: Ca FLIPR TETRA assay, ANTAGONIST mode, stimulation with 3.1 U/mL trypsin
Format: cell-based
Settings: HT-29 cells, antagonist mode, stimulation with 3.1 U/mL trypsin
Here pIC50 is given on a logarithmic scale as minus log10 of the concentration in mol/L.

* COC(=O)C1(C(=O)N2CCN(C(=O)c3cn4nc(-c5ccc(F)cc5)cc(C(C)(C)C)c4n3)C(C)(C)C2)CC1 [Compound I-527] | 8.52
* CC(C)c1cc(-c2ccc(C(F)(F)F)c(F)c2)nn2cc(C(=O)N3CCN(C(=O)C(C)(C)O)CC3(C)C)nc12 [Compound I-252] | 8.17
* COC(=O)C1(C)CCC(C(=O)N2CCN(C(=O)c3cn4nc(-c5ccc(Cl)cc5)cc(C(C)(C)C)c4n3)C(C)(C)C2)CC1 (stereo not drawn) [Compound I-532] | 8.96
* CC(=O)N1CCN(C(=O)c2cn3nc(-c4ccc(F)cc4)cc(C(C)C)c3n2)C(C)(C)C1 [Compound I-512] | 7.28
* Cc1ccc(-c2cc(C(C)(C)C)c3nc(C(=O)N4CCN(C(=O)c5nc(C)n[nH]5)CC4(C)C)cn3n2)cc1 [Compound I-397] | 9.22

Record CC(C)c1cc(-c2ccc(Cl)cc2)nn2cc(C(=O)N3CCN(C(=O)[C@H]4C[C@@](C)(O)C4)CC3(C)C)nc12 [Compound I-541] : what is its pIC50 with PAR2 (HT-29 cells, trypsin activation) (Homo sapiens, UniProt P55085)? 8.82

Also CC(C)c1cc(-c2ccc(F)cc2)nn2cc(C(=O)N3CCN(C(=O)[C@H](O)CC(C)(C)C)C[C@H]3C)nc12 [Compound I-196] ? 7.70

Also Cc1ccc(-c2cc(C(C)(C)C)c3nc(C(=O)N4CCN(C(=O)c5ccccn5)CC4(C)C)cn3n2)cc1F [Compound I-425] ? 8.92

Also CC(C)c1cc(-c2ccc(F)c(C3CC3)c2)nn2cc(C(=O)N3CCNC(=O)C3(C)C)nc12 [Compound I-476] ? 6.02

Also Cc1nc(C(=O)N2CCN(C(=O)c3cn4nc(-c5ccc(F)cc5)cc(C(C)(C)C)c4n3)C(C)(C)C2)n[nH]1 [Compound I-343] ? 9.10

Also CC(C)c1cc(-c2ccc(Cl)cc2)nn2cc(C(=O)N3CCNC(=O)C3(C)C)nc12 [Compound I-353] ? 8.52
